- system name: GSK3A (Homo sapiens, UniProt P49840)
- Sequence (P49840 whole entry): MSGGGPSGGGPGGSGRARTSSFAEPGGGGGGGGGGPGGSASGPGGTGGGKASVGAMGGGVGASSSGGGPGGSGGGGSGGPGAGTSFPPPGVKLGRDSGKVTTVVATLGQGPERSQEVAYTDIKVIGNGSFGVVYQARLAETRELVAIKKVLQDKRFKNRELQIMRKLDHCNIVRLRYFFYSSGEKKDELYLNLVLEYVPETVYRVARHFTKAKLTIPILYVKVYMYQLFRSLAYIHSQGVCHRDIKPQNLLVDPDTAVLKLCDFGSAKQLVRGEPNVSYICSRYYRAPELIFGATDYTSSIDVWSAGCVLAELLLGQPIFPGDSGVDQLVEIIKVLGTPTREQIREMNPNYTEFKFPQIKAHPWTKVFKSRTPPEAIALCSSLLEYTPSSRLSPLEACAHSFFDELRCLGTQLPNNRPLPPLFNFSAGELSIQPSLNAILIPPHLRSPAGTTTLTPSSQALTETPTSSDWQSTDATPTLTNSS
- test: NanoBRET cellular target engagement assay, Nanoluc-GSK3A in HEK293 cells
- assay conditions: NanoBRET GSK3α IC50, HEK293 cells, tracer K-8, 2 hours, 37° C
Where a name gives a salt, the structure may show the parent alone.
endpoint: IC50 (nM)

COc1cc(Cl)c(-n2cnc(N)c(C(=O)Nc3cncc(CNC(C)C)c3)c2=O)c(Cl)c1	7.2
CN[C@H](C)c1cc(F)cc(NC(=O)c2c(N)ncn(-c3c(Cl)cccc3Cl)c2=O)c1 [Example 6, trifluoroacetate]	6.5
CCOc1cc(Cl)c(-n2cnc(N)c(C(=O)Nc3cncc([C@@H]4CCCCN4)c3)c2=O)c(Cl)c1	6.1
COC[C@@H](N)c1cncc(NC(=O)c2c(N)ncn(-c3c(Cl)cc(C#N)cc3Cl)c2=O)c1 (single isomer, unassigned)	7.6
CCOC[C@H](N)c1cncc(NC(=O)c2c(N)ncn(-c3c(Cl)cc(COC)cc3Cl)c2=O)c1 (single isomer, unassigned)	7
